# Test system: MS2 coat protein
# METHOD NOTES: apparent KD of MS2 coat protein; higher = weaker reporter binding
# EXPERIMENTAL CONTEXT: Eterna round: R107; input ligand: arginine 13.2 mM
Listed here are sequences together with their documented apparent KD of MS2 coat protein.
Write your answer as a measured quantity: the number, then the unit.

These recorded examples may help you get a feel for the data.
RESIDUE SEQUENCE | EXPERIMENTAL RESULT
AAUAACAUGAGGAUCACCCAUGUAAAAGAUACCAGAUGCAUGAUGAUCCCUUGGCAGCUUAACGCUGAUUGGAAACAAUCAGCGA [Mat - Same State Theophlline A - Mod of Eli - D9] | 0.175 µM
CCGUAGCUAGGAAGGAGCGCAUACUUCACAUGAGGAUCACCCAUGUCGAGACGUGAGUCAGUGCAGGUAGGUCGCCUAGCUAUGG [Same State - Arginine B (Freestyle 28)] | 0.0235 µM

Asked: For AAUAAACAUGAGGAUCACCCAUGUAUGGAAGGAGCGGUGAAUAAACCAGGUAGGUCGCCAGUGUGAGGGUCAUCUAUGUAAUCAA [Exclusion - Arginine A (Freestyle 3)] , what is its reported apparent KD of MS2 coat protein?
Given back: 0.0291 µM

Asked: For AAAUAAAUACAUGAGGAUCACCCAUGUGAAGGAGCGCCCGUUAGGGCAGGUAGGUCGCACAUGAACUCCAAAGUGCAAAAGCACA [ArgEX 17 #OpenEnded] , what is its reported apparent KD of MS2 coat protein?
Given back: 0.0357 µM

Asked: For CAAUAUAUAUGAAGGAGCGUCGAAAAUGGGUAAACAUGAGGAUCACCCAUGUAAAGGGAACGACAGGUAGGUCGCAUAUGUAUUG [AstromonsSSArgB#9] , what is its reported apparent KD of MS2 coat protein?
Given back: 0.171 µM

Asked: For UUGAUCAUAUAUGAAAACAUAUAUGCAGAAGGAGCGUGAUAAAACACAGGUAGGUCGCUGAAGGGAACAUGAGGAUCACCCAUGU [AstrosSSArgA#3] , what is its reported apparent KD of MS2 coat protein?
Given back: 0.0302 µM

Asked: For CAAUCUACCACCGGCCUACUGUACACUCGCCGAGGACCGGUACGGCCGCCACUCGACGUUCGACAUGAGGAUCACCCAUGUGGGU [theeternabot_exclusion_MS2_Trp_A_14] , what is its reported apparent KD of MS2 coat protein?
Given back: 0.0801 µM

Asked: For AAGGAACAUGAGGAUCACCCAUGUACCGAAGGAGCGGCAGAGAUGCCAGGUAGGUCGCGGUACUUGCCGGGUCAUUCAUGCAGAG [Arraiste] , what is its reported apparent KD of MS2 coat protein?
Given back: 0.0391 µM

Asked: For GUGUACAUGAGGAUCACCCAUGUCGAGUUACGAGGACCGGUACGGCCGCCACUCGGCGGCUCGACACGGAUAGCGAUGCGUUGCU [#18 Exclusion Tryptophan A] , what is its reported apparent KD of MS2 coat protein?
Given back: 0.0246 µM

Asked: For AUUUACAUGGUCAUAUAUAUAUCGUCAGAUACCAGACGAGAUAUUGUCCCUUGGCAGCUGUUACAUGAGGAUCACCCAUGUAAUU [JR_Nu_ExcTheophyA_Sub021] , what is its reported apparent KD of MS2 coat protein?
Given back: 0.041 µM
